The reported numbers originate from PubChem BioAssay (NCI).

- Tested on: K-562 leukemia
- Run description: NCI-60 one-dose screen, 48 h
- Recorded conditions: 10 µM unless noted
- Description: Cells are grown in 96 well plates and exposed to the test compound for 48 hours. Compounds are tested at a single concentration, which is 10^-5 M for most compounds. The reported endpoint is percent growth (GI% or GIPRCNT), where numbers from 0 - 100% represent growth inhibition, and numbers from -100% - 0 represent cell death. For example, a value of 40 represents 60% growth inhibition. A value of 0 means no net growth occurred over the course of the experiment. […]
The panel holds about 83,000 compounds, 20% with a hit somewhere; the sample as a whole holds those more often. Activity calls are given as the source filed them. The calls were made as follows: active = growth percent below 10; inactive = the rest.
The reply should be one of these categories: active, inactive

Some solved entries appear below for comparison.
{"Compound": "CCN(CC)CCOc1ccc(-c2nc3cc(Cl)ccc3s2)cc1", "Assayed system": "K-562 leukemia", "Group": "active"}
{"Compound": "CC1OC2CC(=O)OC2C2=C1C(=O)c1c(O)cccc1C2=O (stereo not given)", "Assayed system": "K-562 leukemia", "Group": "active"}
{"Compound": "CC(C)(C)c1ccc(O)c(C2CCCCC2)c1", "Assayed system": "K-562 leukemia", "Group": "inactive"}

Input line: Hey, what did the test say about Cc1ccnc(NC(c2ccccc2)c2ccc3cccnc3c2O)c1 (stereo not given) ?
Output line: inactive

Input line: Hey, what did the test say about CCC(CCCN(CC)CCc1ccccc1)OC(=O)c1cc(OC)c(OC)c(OC)c1 (stereo not given) ?
Output line: inactive

Input line: Hey, what did the test say about CCCCCCCCCCCCCCCC[N+](C)(CCO)Cc1cnc[nH]1 (stereo not given) ?
Output line: active

Input line: Hey, what did the test say about COc1ccccc1/C=C\C(=O)c1ccccc1 ?
Output line: inactive

Input line: Hey, what did the test say about CCC1OC(OC)C=CC1=O (stereo not given) ?
Output line: inactive

Input line: Hey, what did the test say about NC1=CC(=O)c2ccccc2C1=O ?
Output line: inactive
